The values you see were collected from PubChem BioAssay AID651718.

Tested on: Methionine sulfoxide reductase A (Bos taurus)
Experiment: bovine MsrA enzyme inhibitors, primary screen, biochemical, absorbance, HTS (AID 651718);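 further: 0% = vehicle wells with enzyme and 100% = reference inhibitor wells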
Settings: purified bovine MsrA, absorbance read-out; at 15.5 µM; hits give high values
The whole screen tested about 360,000 compounds, of which about 2,700 (0.75%) were called active. Many of the other results were omitted from the sample, so actives are more common in it than they were.
Exercise: state measured inhibition for each of the molecules provided.
Give bare numbers, in %.

# count of solved cases: 5
// query // Input: Cc1ccc(CN2CCCC(C(=O)c3ccc4c(c3)OCO4)C2)cc1C (configuration not stated) . Output its inhibition only.
// result 0.84

// query // Input: COc1ccc2c(c1)[C@@]13CCCCC1[C@@H](C2)NCC3 (some centres not stated) . Output its inhibition only.
// result 0.27

// query // Input: CCC(C)NC1(c2ccccc2)CCCCC1 (configuration not stated) . Output its inhibition only.
// result -0.91

// query // Input: COc1ccc(C(=O)C2CCCN(Cc3ccc(C)s3)C2)cc1OC (configuration not stated) . Output its inhibition only.
// result 4.73

// query // Input: CCOc1ccc(-c2cc(C)[n+](CCN(CC)CC)c(-c3ccc(OCC)cc3)c2)cc1 . Output its inhibition only.
// result 5.24

State recorded inhibition for all listed molecules.
1. O=S(=O)(c1ccccc1)N1CCC2CCNC2C1 (configuration not stated)
2. CCN(CC)C(=O)[C@@H]1C=C2c3cccc4[nH]c(Br)c(c34)C[C@H]2N(C)C1

// result
[-0.74, 0]
